B1: CLCN6 (parent)
chain: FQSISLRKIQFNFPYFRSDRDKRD

Variants of: B1
Assay: protein stability index of a GFP-peptide fusion (GPS, HEK-293T) (PSI 1-6); higher = more stable;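 further: lentivirally expressed fusions sorted by FACS into six bins by GFP to DsRed ratio, PSI derived from sequencing read proportions per bin multiplied by bin number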
Conditions: c terminus: a fixed tail appended
protein stability index overview
Response field accepts a number only; no unit should be typed.

>>> numeric_result("FQSISLRKIQFNFPYFRSDRDLRD [K22L]")
1.71
>>> numeric_result("FQSISLRKIQFNFPYFRYDRDKRD [S18Y]")
2.35

Q) Returns the measured protein stability index for the input variant. Input: FQSISLRKIQFNFPYFRSDPDKRD [R20P]
A) 1.45

Q) Thanks! And FESISLRKIQFNFPYFRSDRDKRD [Q2E] ?
A) 2.69

Q) // repeat for GQSISLRKIQFNFPYFRSDRDKRD [F1G] and report
A) 2.16

Q) What about SQSISLRKIQFNFPYFRSDRDKRD [F1S] ?
A) 3.4

Q) Similarly, FISISLRKIQFNFPYFRSDRDKRD [Q2I] ?
A) 1.06

Q) Would you kindly repeat that for FQSISLRKIQFNFPYFRSDKDKRD [R20K] ?
A) 1.43

Q) FQSISLRKIQFNFPYFRSDRDKRA [D24A] ?
A) 1.68
